Values compiled from ChEMBL document CHEMBL1201862.

tested on: BJ; assay: cells; format: functional, cell-based; conditions: Homo sapiens
Activity calls are given as the source filed them.
Parameter: EC50. Scope: all listed entries.

molecule: Cc1cc(C(=O)N2CC=C(c3ccccc3)CC2)c2ccccc2n1
EC50: 86.7 µM (active)

molecule: Cc1ccc(-c2cc(C(=O)N/N=C/c3c(C)nn(-c4ccccc4)c3C)[nH]n2)cc1
EC50: 2.04 µM (inconclusive)

molecule: C[C@H]1O[C@@H](OC2CC[C@]3(C=O)[C@H]4CC[C@]5(C)[C@@H](C6=CC(=O)OC6)CC[C@]5(O)[C@@H]4CC[C@]3(O)C2)CC2OC(C)(C)OC21 (stereo partly specified)
EC50: 1.37 µM (inconclusive)

molecule: CCCc1nnc(NC(=O)CCC(=O)N2CCN(Cc3ccc(OC)c(F)c3)CC2)s1
EC50: > 150 µM (inconclusive)

molecule: COc1ccccc1C(=O)N1CCN(c2cccc(Cl)c2)CC1
EC50: 38.6 µM (inconclusive)

molecule: CCN(CC)CCCNC(=O)c1cc2c(-c3ccc(Cl)cc3)nn(C)c2s1
EC50: 21.8 µM (active)

---

assay: viability of HCT116 lacking mutant beta-catenin – cell-based, human colon tumor, dose response (AID 1045); assay type: functional;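 note: HCT116 colon tumor cells with beta catenin knocked out; cells exposed to compound for 60 hours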
Calls of active or inactive are those of the source.

compound: CC1CCCCN1S(=O)(=O)c1ccc(C(=O)Nc2ccccc2-c2nc3ccccc3[nH]2)cc1 (stereo not given)
EC50: 25.5 µM (active)

compound: COc1ccc(C(=O)Nc2ccccc2C(=O)N(Cc2ccco2)C(C(N)=O)C(C)C)cc1 (stereo not given)
EC50: 9.3 µM (active)

compound: COC(=O)c1ccc(COc2ccc(/C=C(\C#N)c3nc4ccccc4[nH]3)cc2OC)o1
EC50: 88.4 µM (active)

compound: O=[N+]([O-])c1ccc(-c2nc(-c3cccs3)c(-c3cccs3)[nH]2)cc1
EC50: 19 µM (active)

compound: O=C(/C=C/c1ccc(Cl)cc1Cl)c1cccnc1
EC50: 5.09 µM (active)

---

molecular target: UniProt:P63073; experiment: blockers of eIF4G binding by eIF4E – biochemical, TR-FRET, dose response (AID 855); type: functional;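 note: potency for disrupting eIF4E binding to eIF4GI seen as loss of FRET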
Sequence (P63073 whole entry): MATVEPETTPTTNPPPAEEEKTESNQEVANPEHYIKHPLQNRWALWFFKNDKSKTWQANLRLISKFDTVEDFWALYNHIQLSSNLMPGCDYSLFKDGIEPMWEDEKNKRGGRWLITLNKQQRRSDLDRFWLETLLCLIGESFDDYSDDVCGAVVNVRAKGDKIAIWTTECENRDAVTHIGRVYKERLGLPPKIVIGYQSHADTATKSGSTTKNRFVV
Activity calls are given as the source filed them.
Outcomes: 1 for active, 0 for inactive

molecule: Clc1ccc(OCCCn2cncn2)cc1Cl
cat: 0
--
molecule: COc1cc(/N=c2\ssnc2Cl)cc(OC)c1
cat: 1
--
molecule: Oc1cc2c(cc1C(c1ccc(Br)cc1)N1CCCC1)OCO2 (stereo not given)
cat: 0
--
molecule: O=C(O)c1cccc2c1NC(c1cccc([N+](=O)[O-])c1)C1CC(Sc3ccccc3[N+](=O)[O-])C(Cl)C21 (stereo not given)
cat: 0
--
molecule: COc1ccccc1CN1CCN(C(=O)c2ccncc2)CC1
cat: 0

---

Parameter: AC50. Scope: all listed entries.
biological target: Cytochrome P450 2C9 (Homo sapiens, UniProt P11712)
Sequence (P11712 whole entry): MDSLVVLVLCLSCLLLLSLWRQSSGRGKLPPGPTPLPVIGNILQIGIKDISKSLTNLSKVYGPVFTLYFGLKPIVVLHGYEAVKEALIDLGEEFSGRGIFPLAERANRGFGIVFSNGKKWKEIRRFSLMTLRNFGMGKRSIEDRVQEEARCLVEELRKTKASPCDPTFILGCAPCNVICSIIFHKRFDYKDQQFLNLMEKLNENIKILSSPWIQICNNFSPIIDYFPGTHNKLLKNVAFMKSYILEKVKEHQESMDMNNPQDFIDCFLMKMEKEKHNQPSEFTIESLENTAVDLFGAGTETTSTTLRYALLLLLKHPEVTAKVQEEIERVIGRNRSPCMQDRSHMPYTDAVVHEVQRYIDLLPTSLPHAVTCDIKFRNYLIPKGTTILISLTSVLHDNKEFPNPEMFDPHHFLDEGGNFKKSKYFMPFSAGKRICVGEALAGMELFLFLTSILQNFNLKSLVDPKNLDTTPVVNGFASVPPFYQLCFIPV

smiles.representation: Cc1ccc(-n2c(SCc3ccc([N+](=O)[O-])cc3)nc3ccccc3c2=O)cc1
AC50: 0.0891 µM (inconclusive)
//
smiles.representation: CO[C@@H]1/C=C\O[C@@]2(C)Oc3c(C)c(O)c4c(c3C2=O)/C(=N/[C@H]2CC[C@H](O)O[C@@H]2C)C=C(NC(=O)/C(C)=C\C(=O)[C@@H]2C[C@@H]2[C@@H](O)[C@H](C)[C@@H](O)[C@H](C)[C@H](OC(C)=O)[C@@H]1C)C4=O
AC50: 3.98 µM (inconclusive)
//
smiles.representation: COc1cc2c(cc1OC)/C(=C/C(=O)N1CCOCC1)NC(C)(C)C2
AC50: 3.98 µM (inconclusive)
